- Test system: Liver
- experiment_summary: Antioxidant activity in BALB/c mouse liver microsomes assessed as inhibition of free radical-induced lipid peroxidation after 60 mins
- Assay type: functional, Microsome
- conditions_used: 1 h
Property: IC50; scope: individual compounds
observable: IC50 (µM)

compound=COc1cc([C@@H]2C[C@H](O)C[C@H](CCc3ccc(O)cc3)O2)cc(O)c1O value=27.9
compound="COc1cc(CCC(=O)CC(O)CCc2ccc(O)c(O)c2)ccc1O (stereo not drawn)" value=17.1
compound=COc1cc([C@@H]2C[C@@H](O)C[C@H](CCc3ccc(O)c(O)c3)O2)cc(O)c1O value=21.9
